# TARGET_OR_TEST_SYSTEM: T1, Human Factor P (human, UniProt P27918 29-469)
# T1 construct: Bought protein (Complement Technology cat# A139) in SET and Biacore; Factor P of human serum in the functional assays; also called FP; human FP
# T1 sequence (P27918 29-469 limits assumed): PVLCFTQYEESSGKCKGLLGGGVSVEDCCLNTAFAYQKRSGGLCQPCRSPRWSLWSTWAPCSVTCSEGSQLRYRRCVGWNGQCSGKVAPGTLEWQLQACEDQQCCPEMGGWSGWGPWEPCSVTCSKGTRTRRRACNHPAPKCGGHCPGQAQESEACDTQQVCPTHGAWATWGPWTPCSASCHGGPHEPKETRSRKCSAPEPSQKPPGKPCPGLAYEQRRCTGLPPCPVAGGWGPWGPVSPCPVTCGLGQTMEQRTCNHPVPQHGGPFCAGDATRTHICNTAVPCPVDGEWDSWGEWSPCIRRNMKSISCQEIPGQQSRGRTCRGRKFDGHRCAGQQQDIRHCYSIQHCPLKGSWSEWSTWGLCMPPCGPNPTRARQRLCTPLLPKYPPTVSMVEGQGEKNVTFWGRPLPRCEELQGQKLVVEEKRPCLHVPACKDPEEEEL
# EXPERIMENT_DESCRIPTION: SET, solution equilibrium titration
pKd: −log10 of the molar value.
Respond with 1.0 for pKd values of 10 and above, 0.0 for values below.

{"BINDER": "NVS809 (Fab, V domains shown) VH: EVQLVQSGAEVKKPGSSVKVSCKASGGTFSSYAISWVRQAPGQGLEWMGRIIPIFGTANYAQKFQGRVTITADESTSTAYMELSSLRSEDTAVYYCARHGGYYFDSWGQGTLVTVSS VL: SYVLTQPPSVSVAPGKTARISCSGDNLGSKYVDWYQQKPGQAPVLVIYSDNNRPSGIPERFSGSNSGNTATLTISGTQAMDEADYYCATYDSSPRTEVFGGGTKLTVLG", "LABEL": 1.0}
{"BINDER": "NVS967 (Fab, V domains shown, Disulfide-bridged Fab; also called Fab NVS967) VH: EVQLVQSGAEVKKPGASVKVSCKASGYTFTSHYMHWVRQAPGQGLEWMGNINPVDGGTEYAQKFQGRVTMTRDTSISTAYMELSSLRSEDTAVYYCARDGIEHGGHYYWGYLFDIWGQGTLVTVSS VL: SYVLTQPPSVSVAPGKTARISCSGDSIREYYVHWYQQKPGQAPVLVIGDDTNRPSGIPERFSGSNSGNTATLTISRAQAGDEADYYCAAWDFSPAIVFGGGTKLTVLG", "LABEL": 1.0}
{"BINDER": "NVS962-Q (Fab, V domains shown, NVS962 with heavy chain N30 replaced with glutamine (deamidation site removed)) VH: EVQLVQSGAEVKKPGSSVKVSCKASGGTFQSYAISWVRQAPGQGLEWMGRIIPIFGTANYAQKFQGRVTITADESTSTAYMELSSLRSEDTAVYYCARHGGYSFDSWGQGTLVTVSS VL: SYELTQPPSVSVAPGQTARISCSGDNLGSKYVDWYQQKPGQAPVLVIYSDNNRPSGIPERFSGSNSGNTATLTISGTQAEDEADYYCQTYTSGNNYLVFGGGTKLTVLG", "LABEL": 0.0}

Source listed as patent US20130295102A1.
